Cited source for all entries: ChEMBL document CHEMBL2321719

assay: Unbound fraction in cynomolgus monkey plasma at 1000 ng/g after 5 hrs by equilibrium dialysis method; type: ADME, cell-free, Macaca fascicularis
endpoint-label: fraction unbound at 5 h, 1000 ng/g
Answers are plain numbers.

CN1CCC(c2cn(-c3ccc(F)cc3)c3ccc(-c4ncn(C)n4)cc23)CC1 :: 0.16

Would you kindly look at the next entry?
Using the record for CN1CCC(c2cn(-c3ccc(F)cc3)c3ccc(-c4cncnc4)cc23)CC1 , report its fraction unbound at 5 h, 1000 ng/g.
0.1

###

target: D(2) dopamine receptor (Homo sapiens, UniProt P14416); test: Displacement of [3H]spiperone from human dopamine D2 receptor expressed in CHO cells after 30 mins by scintillation counting analysis
Sequence (P14416 whole entry): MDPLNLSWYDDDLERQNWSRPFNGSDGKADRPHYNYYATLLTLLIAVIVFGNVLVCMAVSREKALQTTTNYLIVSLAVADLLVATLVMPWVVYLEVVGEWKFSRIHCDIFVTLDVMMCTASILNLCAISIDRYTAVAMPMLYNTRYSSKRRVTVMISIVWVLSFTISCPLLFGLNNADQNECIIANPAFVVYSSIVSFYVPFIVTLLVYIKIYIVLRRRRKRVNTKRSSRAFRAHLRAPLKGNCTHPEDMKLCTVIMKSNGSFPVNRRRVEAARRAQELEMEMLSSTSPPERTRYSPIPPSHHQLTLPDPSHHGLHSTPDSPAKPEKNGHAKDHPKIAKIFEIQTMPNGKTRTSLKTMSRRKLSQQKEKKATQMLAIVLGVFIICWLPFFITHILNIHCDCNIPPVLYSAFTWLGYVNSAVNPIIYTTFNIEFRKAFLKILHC
endpoint-label: pKi
Give bare numbers, as −log10 of the molar value.

CN1CCC(c2cn(-c3ccncc3)c3ccc(-c4cnn(C)c4)cc23)CC1 :: 5.19
CN1CCC(c2cn(-c3ccc(F)cc3)c3ccc(-c4cccnc4)cc23)CC1 :: 7.12
CN1CCC(c2cn(-c3ccc(F)cc3)c3ccc(-c4ncn(C)n4)cc23)CC1 :: 6.66
CN1CCC(c2cn(-c3ccc(F)cc3)c3ccc(-c4cnn(C)c4)cc23)CC1 :: 6.82
CN1CCC(c2cn(-c3ccc(F)cc3)c3ccc(-c4ccn(C)n4)cc23)CC1 :: 6.80

Provide the reported pKi of each entry below, same order.
1. CN1CCC(c2cn(-c3ccncc3)c3ccc(-c4cccnc4)cc23)CC1
2. CN1CCC(c2cn(-c3ccc(F)cc3)c3ccc(-c4ccnn4C)cc23)CC1
3. CN1CCC(c2cn(-c3ccncc3)c3ccc(-c4ccnn4C)cc23)CC1
4. CN1CCC(c2cn(-c3ccc(F)cc3)c3ccc(-c4ccncc4)cc23)CC1
5. CN1CCC(c2cn(-c3ccc(F)cc3)c3ccc(-c4nnn(C)n4)cc23)CC1
6. CN1CCC(c2cn(-c3ccncc3)c3ccc(-c4cncnc4)cc23)CC1
7. CN1CCC(c2cn(-c3ccncc3)c3ccc(-c4ccncc4)cc23)CC1

1: 5.96; 2: 7.82; 3: 6.06; 4: 7.57; 5: 7.16; 6: 6.08; 7: 6.59

###

Exercise: state measured efflux ratio at up to 20 µM for each of the compounds provided.
test: Efflux ratio of apparent permeability from basolateral to apical side over apical to basolateral side in human Caco2 cells at 1 to 20 uM; type: ADME, cell-based; conditions: Caco-2
Answers are plain numbers.

CCN1CCC[C@H]1CNC(=O)c1c(O)c(Cl)cc(Cl)c1OC [RACLOPRIDE] :: 0.5

Query: efflux ratio at up to 20 µM; subject: COc1ccccc1N1CCN(CCN(C(=O)C2CCCCC2)c2ccccn2)CC1 [WAY-100,635]
0.9

###

assay: Selectivity ratio of Ki for human dopamine D2 receptor to Ki for bovine alpha1A adrenoceptor
# if measured Ratio Ki < 200: 1  # else: 0

Reference set (3 entries):
CN1CCC(c2cn(-c3ccncc3)c3ccc(-c4cccnc4)cc23)CC1 :: 1
CN1CCC(c2cn(-c3ccc(F)cc3)c3ccc(-c4nnn(C)n4)cc23)CC1 :: 0
CN1CCC(c2cn(-c3ccc(F)cc3)c3ccc(-c4cnn(C)c4)cc23)CC1 :: 1

Continue with the molecule presented below.
Bench note: check whether CN1CCC(c2cn(-c3ccncc3)c3ccc(-c4ccncc4)cc23)CC1 shows Ratio Ki below 200
1

###

For each record, write down the corresponding fraction unbound at 5 h, 1000 ng/g.
assay: Unbound fraction in rat plasma at 1000 ng/g after 5 hrs by equilibrium dialysis method; format: ADME, cell-free
One number for each entry.

CN1CCC(c2cn(-c3ccc(F)cc3)c3ccc(-c4ncn(C)n4)cc23)CC1 :: 0.074
Cn1nnc(-c2ccc3c(c2)c(C2CCN(CCN4CCNC4=O)CC2)cn3-c2ccc(F)cc2)n1 :: 0.022

Given CN1CCC(c2cn(-c3ccc(F)cc3)c3ccc(-c4cncnc4)cc23)CC1 , state its recorded fraction unbound at 5 h, 1000 ng/g.
0.088

###

test: Selectivity ratio of Ki for human dopamine D2 receptor to Ki for bovine alpha1A adrenoceptor
endpoint-label: Ratio Ki
One number for each entry.

CN1CCC(c2cn(-c3ccncc3)c3ccc(-c4ccnn4C)cc23)CC1 :: 46
CN1CCC(c2cn(-c3ccc(F)cc3)c3ccc(-c4ccnn4C)cc23)CC1 :: 47

Provide each entry's Ratio Ki from the list below.
1. CN1CCC(c2cn(-c3ccncc3)c3ccc(-c4cnn(C)c4)cc23)CC1
2. CN1CCC(c2cn(-c3ccc(F)cc3)c3ccc(-c4cccnc4)cc23)CC1

168
33

Please give Ratio Ki, item by item, for the list that follows.
1. CN1CCC(c2cn(-c3ccncc3)c3ccc(-c4cncnc4)cc23)CC1
2. CN1CCC(c2cn(-c3ccc(F)cc3)c3ccc(-c4ccncc4)cc23)CC1
3. CN1CCC(c2cn(-c3ccc(F)cc3)c3ccc(-c4ncn(C)n4)cc23)CC1
4. CN1CCC(c2cn(-c3ccc(F)cc3)c3ccc(-c4ccn(C)n4)cc23)CC1

[44, 3, 1380, 296]
